# target: GRB2 (Homo sapiens, UniProt P62993)
# Sequence (P62993 whole entry): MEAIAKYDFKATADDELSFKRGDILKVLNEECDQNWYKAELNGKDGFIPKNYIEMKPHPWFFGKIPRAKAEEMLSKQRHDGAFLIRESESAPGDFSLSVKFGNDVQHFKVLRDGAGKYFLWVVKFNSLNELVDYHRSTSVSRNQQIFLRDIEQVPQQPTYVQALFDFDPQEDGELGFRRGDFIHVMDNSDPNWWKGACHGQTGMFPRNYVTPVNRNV
pKd: −log10 of the molar value.
Decision: pKd compared against 7; not below it gives Met, below it gives Not met.

Would you say NC(=O)N1c2ccccc2CC(=O)c2ccccc21 [Oxcarbazepine] shows pKd at minimum 7? Not met

Would you say C/C(=C\CO)CCC[C@H](C)CCC[C@H](C)CCCC(C)C shows pKd at minimum 7? Not met

Would you say Nc1nc(=O)n([C@@H]2CS[C@H](CO)O2)cc1F shows pKd at minimum 7? Met

###

Structures can show the parent of a compound that is named as a salt.
Please go through the items and note down their pKd.
Keep in mind that pKd stands for -log10 of concentration in molar terms.

Noted pKd for CCCC(=O)O[C@]1(C(=O)CCl)[C@@H](C)C[C@H]2[C@@H]3CCC4=CC(=O)C=C[C@]4(C)[C@@]3(F)C(=O)C[C@@]21C [Clobetasone butyrate] , tested on GRB2 (Homo sapiens, UniProt P62993): 7.00

Noted pKd for CC(C)OC(=O)OCOP(=O)(CO[C@H](C)Cn1cnc2c(N)ncnc21)OCOC(=O)OC(C)C [TDF, Tenofovir Disoproxil Fumarate] , tested on GRB2 (Homo sapiens, UniProt P62993): 7.13

Noted pKd for CC(N)C12CC3CC(CC(C3)C1)C2 (stereo not drawn) [Rimantadine] , tested on GRB2 (Homo sapiens, UniProt P62993): 6.80
